Biological target: HLA-A*3101 (human)
Experiment: competition with 125I-labelled standard peptide for purified HLA; gel filtration
Conditions: remark: other sources report otherwise
ASSAY ENDPOINT: IC50 (µM)
Give just the number in µM; leave the unit off.

LVARNVLVK (modifications not checked) [Her2/neu.846.V2] = 9

(Q) Retrieve IC50 measured for LLDHVRENR [Her2/neu.806] and print it.
(A) 0.5
